Values were extracted from the supplement of paper PMC11451515.

- Test system: NOMO1
- protocol description: cell viability relative to DMSO control; higher = less cytotoxic
- assay conditions: HPLM + 10% dialyzed FBS; 48 h; 0.0211 µM
endpoint name: cell viability (%)
Your answer should be a plain number; it is taken to be in %.

Note to self: cell viability of N[S+](=O)([O-])OC[C@@H]1C[C@@H](n2ccc3c(N[C@H]4CCc5ccccc54)ncnc32)C[C@@H]1O with NOMO1 was 111

Form field, cell viability with NOMO1, item Cc1ncc([N+](=O)[O-])n1CC(C)O (stereo not given) : 114

The reported NOMO1 cell viability of NC(=O)NO is 110

Assay NOMO1, sample CN1CCN(CCOc2cc(OC3CCOCC3)c3c(Nc4c(Cl)ccc5c4OCO5)ncnc3c2)CC1 , cell viability read: 131

Entry COc1cc(/C=C/C(=O)O)ccc1O under NOMO1 had cell viability of 100

====

- Tested on: SEM cells
- protocol description: cell viability relative to DMSO control; higher = less cytotoxic
- assay conditions: HPLM + 10% dialyzed FBS; 48 h; 0.00234 µM
Reported cell viability is given for each of the following molecules.
Please reply with the bare figure in % and do not write the unit itself.

Some solved entries appear below for comparison.
INSERT INTO assay_data (molecule, endpoint_name, observed_value) VALUES
  ('C[C@@]1(C(=O)Nc2ccc(F)nc2)CCCN1c1nc(Nc2cc(C3CC3)[nH]n2)c2cccn2n1', 'cell viability', 98.6),
  ('CNC(=O)Nc1ccc(-c2nc(N3CC4CCC(C3)O4)c3cnn(C4CCC5(CC4)OCCO5)c3n2)cc1', 'cell viability', 106),
  ('C[C@H]1COC/2=C1/C(=O)C(=O)C3=C4CCCC(C)(C)C4=CC=C23', 'cell viability', 93.8);

Quick note, cell viability for c1ccc(-c2oc3ncnc(NC[C@@H]4CCCO4)c3c2-c2ccccc2)cc1 landed at 115

cell viability measured on Nc1ncnc2c1c(-c1cccc(OCc3ccccc3)c1)cn2C1CC(CN2CCCC2)C1 (centres undefined) = 112

The recorded cell viability for Nc1ncnc2c1nc(Cl)n2[C@@H]1O[C@H](CO)[C@@H](O)[C@H]1O is 128

Lab note: O=C1NC(=O)/C(=C/c2ccc(-c3ccc(F)cc3O)o2)S1 gave cell viability of 118

Per the records, this molecule ( CNC(=O)N1\N=C(\C2=CC=C(N)C=C2)C3=CC4=C(OCO4)C=C3CC1C (centres undefined) ) has cell viability equal to 113

Briefly, cell viability measured for Cc1nc(Nc2n[nH]c3c2CN(C(=O)N[C@H](CN(C)C)c2ccccc2)C3(C)C)c2sccc2n1 : 70.6

====

cell viability listing for selected compounds.
- System: NOMO1
- protocol description: cell viability relative to DMSO control; higher = less cytotoxic
- assay conditions: RPMI 5 mM glucose + 10% FBS; 48 h; 0.19 µM
Write the answer as a number in %, unit excluded.

Worked cases, answers included:
INSERT INTO results (chem_smiles, target_or_test_system, observed_value) VALUES
  ('CNC(=O)[C@H](CC/1=C/N=C\2/C=C\C\C=C12)NC(=O)[C@H](CC(C)C)CC(=O)NO', 'NOMO1', 103),
  ('COc1cc(/C=C/C(=O)O)ccc1O', 'NOMO1', 101);

Value of cell viability reported for the compound COc1cc(CNC(=O)CCCC/C=C/C(C)C)ccc1O is 114

cell viability for CC[C@]1(O)C[C@@H]2CN(CCc3c([nH]c4ccccc34)[C@@](C(=O)OC)(c3cc4c(cc3OC)N(C)[C@H]3[C@@](O)(C(N)=O)[C@H](O)[C@]5(CC)C=CCN6CC[C@]43[C@@H]65)C2)C1 is 25.3

Cc1nc(Nc2n[nH]c3c2CN(C(=O)N[C@H](CN(C)C)c2ccccc2)C3(C)C)c2sccc2n1 has a reported cell viability of 54.2

Kindly note the recorded cell viability for Cc1cccc(/C=N/Nc2cc(N3CCOCC3)nc(OCCc3ccccn3)n2)c1 , which is 97

====

- System: SEM cells
- protocol description: AUC of viability dose-response curve (% viability x log10 dose units); higher = less sensitive
- assay conditions: RPMI 5 mM glucose + 10% dialyzed FBS; 48 h
Each record's class is read off its AUC of viability dose-response curve using these ranges: LOW (below 300), MID (300 to below 400), HIGH (400 or more)

Before answering, review these 6 worked examples.
INSERT INTO assay_data (compound, assigned_category) VALUES
  ('COc1cc2c(Oc3ccc4[nH]c(C)cc4c3F)ncnc2cc1OCCCN1CCCC1', 'MID'),
  ('CN1CCN(C(=O)O[C@H]2c3nccnc3C(=O)N2c2ccc(Cl)cn2)CC1', 'HIGH'),
  ('COc1cc(N2CCC(N(C)C)CC2)ccc1Nc1ncc(Cl)c(Nc2ccccc2P(C)(C)=O)n1', 'LOW'),
  ('COc1cc(O)c2c(c1)C(=O)c1cc(C)cc(O)c1C2=O', 'HIGH'),
  ('Cc1cccc(/C=N/Nc2cc(N3CCOCC3)nc(OCCc3ccccn3)n2)c1', 'MID'),
  ('CC(O)C1C2C(C)\C(=C(/N2C1=O)C(O)=O)SC3CNC(C3)C(=O)N(C)C (centres undefined)', 'HIGH');

Query string: Which band does NC(=O)Nc1cc(-c2cccc(F)c2)sc1C(=O)N[C@H]1CCCNC1 fall in?
Result string: LOW

Query string: Which bin should I file CC(C)Cc1ccc(C(C)C(=O)O)cc1 (centres undefined) under?
Result string: HIGH

Query string: Which of the defined bands does the recorded AUC of viability dose-response curve of CC(=O)[C@]1(O)Cc2c(O)c3c(c(O)c2[C@@H](O[C@H]2C[C@H](N)[C@H](O)[C@H](C)O2)C1)C(=O)c1ccccc1C3=O sit within?
Result string: MID

====

- System: SEM cells
- protocol description: cell viability relative to DMSO control; higher = less cytotoxic
- assay conditions: RPMI 5 mM glucose + 10% FBS; 48 h; 0.00234 µM
endpoint name: cell viability (%)
Write the value in % as a bare number.

# example entries with known answers
INSERT INTO assay_data (molecule, endpoint_name, observed_value) VALUES
  ('NC/1=N/C(=O)N(/C=N1)[C@@H]2O[C@H](CO)[C@@H](O)[C@H]2O', 'cell viability', 107),
  ('COc1cccc2c1[C@]13CCN(CC4CC4)[C@H](C2)[C@]1(OC)CCC(=O)C3', 'cell viability', 123),
  ('CC(COc1ccccc1)N(CCCl)Cc1ccccc1 (stereo unspecified)', 'cell viability', 123),
  ('O.O.CCN1CCN(C(=O)N[C@H](C(=O)N[C@H]2[C@@H]3SC\C(=C(/N3C2=O)C(O)=O)CSC4=NN=N[N]4C)C5=CC=C(O)C=C5)C(=O)C1=O', 'cell viability', 75.9),
  ('N[S+](=O)([O-])OC[C@@H]1C[C@@H](n2ccc3c(N[C@H]4CCc5ccccc54)ncnc32)C[C@@H]1O', 'cell viability', 121);

Consider the record given below.
Briefly, cell viability measured for C[C@](N)(Cc1ccc(O)c(O)c1)C(=O)O : 106

====

- Tested on: SEM cells
- protocol description: cell viability relative to DMSO control; higher = less cytotoxic
- assay conditions: RPMI 5 mM glucose + 10% FBS; 48 h; 0.0211 µM
endpoint name: cell viability (%)
Unit % implied. Number only.

INSERT INTO assay_data (compound, target_or_test_system, observed_value) VALUES
  ('COc1cc(C)c(Sc2cnc(NC(=O)c3ccc(CNC(C)C(C)C)cc3)s2)cc1C(=O)N1CCN(C(C)=O)CC1 (centres undefined)', 'SEM cells', 129),
  ('Cc1onc(-c2ccccc2)c1C(=O)N[C@@H]1C(=O)N2[C@@H]1SC(C)(C)[C@@H]2C(=O)[O-].[Na+]', 'SEM cells', 114),
  ('N#C/N=C(\NCCCCCCOc1ccc(Cl)cc1)Nc1ccncc1', 'SEM cells', 9.27),
  ('Cc1nc(Nc2n[nH]c3c2CN(C(=O)N[C@H](CN(C)C)c2ccccc2)C3(C)C)c2sccc2n1', 'SEM cells', 79.1),
  ('CC(NCCc1ccc(O)cc1)C(O)c1ccc(O)cc1 (centres undefined)', 'SEM cells', 111),
  ('CC(C)C[C@H](NC(=O)[C@@H](O)[C@H](N)Cc1ccccc1)C(=O)O', 'SEM cells', 123),
  ('COc1cc(CNC(=O)CCCC/C=C/C(C)C)ccc1O', 'SEM cells', 123),
  ('O=C(Nc1cccnn1)N1CCC(=Cc2cccc(Oc3ccc(C(F)(F)F)cn3)c2)CC1', 'SEM cells', 17.1);

Please find the next compound below.
// cell viability value for OCc1ccc(-c2ccc(-c3ccc(CO)s3)o2)s1 : 81.5

====

- Test system: NOMO1
- protocol description: cell viability relative to DMSO control; higher = less cytotoxic
- assay conditions: RPMI 5 mM glucose + 10% FBS; 48 h; 0.569 µM
endpoint name: cell viability (%)
Express the result in % but write the number alone.

Answered examples (4):
INSERT INTO results (chem_smiles, endpoint_name, unit_descriptor, observed_value) VALUES
  ('CN1CCN(C(=O)O[C@H]2c3nccnc3C(=O)N2c2ccc(Cl)cn2)CC1', 'cell viability', '%', 99.4),
  ('CCOC(=O)Nc1ccc(NCc2ccc(F)cc2)nc1N', 'cell viability', '%', 101),
  ('N=C1N[C@H]2[C@H](CS[C@H]2CCCCC(=O)O)N1', 'cell viability', '%', 107),
  ('CCOC(=O)\C1=C\[C@@H](OC(CC)CC)[C@H](NC(C)=O)[C@@H](N)C1', 'cell viability', '%', 95.7);

Next up:
For this compound ( O.O.CCN1CCN(C(=O)N[C@H](C(=O)N[C@H]2[C@@H]3SC\C(=C(/N3C2=O)C(O)=O)CSC4=NN=N[N]4C)C5=CC=C(O)C=C5)C(=O)C1=O ), measured cell viability is 111
